- Test system: HCT116
- Procedure Summary: AC50 cell viability (CellTiter-Glo); higher = less potent
- Measurement Setup: 48 h
Assay Metric: AC50 cell viability (µM)
// units = µM; emit number, no label

Below are worked cases with known answers.
Molecule: C[C@@]12OC(=O)[C@@]1(NC(=O)[C@@H]2CCCl)[C@@H](O)[C@H]\3CCC\C=C3 [Marizomib]
Data Value: 0.118

Molecule: COC1=CC(=C2C(=O)N\C(=N/C2=C1)C3=CC(=C(OCCO)C(=C3)C)C)OC [RVX-208]
Data Value: 18.6

Molecule: Clc1ccc(C(c2ccc(Cl)cc2)[n+]2ccn(CC(OCc3ccc(Cl)cc3Cl)c3ccc(Cl)cc3Cl)c2)cc1 (centres undefined) [Calmidazolium chloride]
Data Value: 10.5

Molecule: CC(NC1=NC=NC2=C1[NH]C=N2)\C3=C\C4=C(C(=CC=C4)Cl)C(=O)N3C5=CC=CC=C5 (centres undefined) [IPI-145]
Data Value: 14.8

Molecule: c1ccc(-c2cc(CCC3CCNCC3)c3ccccc3n2)cc1 [Pipequaline]
Data Value: 16.6

query: Entry under review: COc1c(C)c2c(c(O)c1C/C=C(\C)CCC(=O)O)C(=O)OC2 [Mycophenolic acid] . Reported AC50 cell viability?
result: 2.09

query: Requested read-out: AC50 cell viability. Entry: CCN(CC)C(=S)SSC(=S)N(CC)CC [Disulfiram]
result: 16.6

query: Give its AC50 cell viability value. Item: C[N+](C)(C)CC(=O)O [Betaine]
result: 20.9

query: Given COc1ccc2nc3[nH]nc(C)c3c(NCCOCCO)c2c1 , state its recorded AC50 cell viability.
result: 18.6

###

- Test system: HCT116
- Procedure Summary: AC50 cell viability (CellTiter-Glo); higher = less potent
- Measurement Setup: 48 h
Entries whose AC50 cell viability is below 7 µM take Y; entries at or above 7 µM take N.

The examples below pair each entry with its known result.
Compound: Cc1c(C(=O)Nc2ccc(N3C[C@@H](C)O[C@@H](C)C3)nc2)cccc1-c1ccc(OC(F)(F)F)cc1
Class: N
//
Compound: CN(C)c1ccccc1CN1CCCN(Cc2ccccc2N(C)C)C1c1ccncc1
Class: N
//
Compound: CC(/C=C/[C@@H]1C[C@]1(C)c1ccc2c(c1)C(C)(C)CCC2(C)C)=C\C(=O)O
Class: N
//
Compound: Cc1ccc(-n2nc(C(C)(C)C)cc2NC(=O)Nc2ccc(OCCN3CCOCC3)c3ccccc23)cc1
Class: N
//
Compound: Cn1cnc2c(F)c(Nc3ccc(Br)cc3F)c(C(=O)NOCCO)cc21
Class: Y
//
Compound: CC(N[C@H]1CCCC[C@@H]1NC(=O)c1ccc(Cl)cc1)c1cccc2ccccc12 (stereo not given in full)
Class: N
//
Compound: OC1CCC(Nc2ncc3nc(Nc4c(F)cc(F)cc4F)n([C@@H]4CCOC4)c3n2)CC1 (stereo not given in full)
Class: N
//
Compound: CCN1\C(=C(C(=O)NC)/C(=O)C2=C1N=C(C=C2)C#CC(C)(O)COC)N (stereo not given)
Class: N
//
Compound: C=C1/C(=C/C=C2\CCCC3(C)[C@@H]([C@H](C)/C=C/C=C/C(O)(CC)CC)CC[C@@H]23)C[C@@H](O)C[C@@H]1O (stereo not given in full)
Class: N
//
Compound: Cc1ccc(Nc2nccc(N(C)c3ccc4c(C)n(C)nc4c3)n2)cc1[S+](N)(=O)[O-]
Class: Y

query: Does this compound meet the criterion AC50 cell viability < 7 µM? CCCCCCCCCCCCCC(=O)N[C@H](CO)[C@H](O)c1ccc([N+](=O)[O-])cc1
result: N

###

In this section, each of the molecules is paired with its reported AC50 cell viability.
- Tested on: HCT116
- Procedure Summary: AC50 cell viability (CellTiter-Glo); higher = less potent
- Measurement Setup: 48 h

Below: 3 molecules and their reported AC50 cell viability.
Molecule: Oc1ccc(OCc2ccccc2)cc1
Measurement Target: HCT116
AC50 cell viability: 18.6 µM
//
Molecule: C[S+]([O-])c1ccc(-c2nc(-c3ccc(F)cc3)c(-c3ccncc3)[nH]2)cc1 (centres undefined)
Measurement Target: HCT116
AC50 cell viability: 18.6 µM
//
Molecule: Cn1c2ccccc2c2c3c(c4c5ccccc5n(CCC#N)c4c21)CNC3=O
Measurement Target: HCT116
AC50 cell viability: 18.6 µM

// next item, AC50 cell viability requested
query: Need AC50 cell viability, item COc1cc(OC)c(/C=C/[S+](=O)([O-])Cc2ccc(OC)c(OP(=O)(O)O)c2)c(OC)c1
result: 0.0468 µM

###

- Test system: HCT116
- Procedure Summary: efficacy (fitted maximal change in viability relative to DMSO control); higher = less cytotoxic (negative = loss of viability)
- Measurement Setup: 48 h
Structures can show the parent of a compound that is named as a salt.
Assay Metric: efficacy (%)
# unit: % | format: bare number

Example entries begin here.
Molecule: CCn1c(-c2nonc2N)nc2cncc(CNC3CCNCC3)c21
Assay Metric: efficacy
Data Value: -43.9
//
Molecule: CCCc1nc2c(C)cc(-c3nc4ccccc4n3C)cc2n1Cc1ccc(-c2ccccc2C(=O)O)cc1 [Telmisartan]
Assay Metric: efficacy
Data Value: -20.9
//
Molecule: CC(C)c1onc(-c2c(Cl)cccc2Cl)c1COc1ccc(/C=C/c2cccc(C(=O)O)c2)c(Cl)c1 [GW-4064X]
Assay Metric: efficacy
Data Value: -29.7
//
Molecule: CN1c2ccccc2C(=O)N2CCc3c([nH]c4ccccc34)C21 (stereo not given) [Evodiamine]
Assay Metric: efficacy
Data Value: -64.2
//
Molecule: Nc1nccc(-c2c(-c3ccc(F)cc3)ncn2C2CCN(Cc3ccon3)CC2)n1
Assay Metric: efficacy
Data Value: -56.5

query: Could you tell me which efficacy is on file for CN1C[C@@H]2c3ccccc3Oc3ccc(Cl)cc3[C@H]2C1 [Asenapine maleate] ?
result: -77.1

query: What does the data say about its efficacy? Entry: Cc1nc(C)c(CN2CCN(C(c3ccc(F)cc3)c3ccc(F)cc3)CC2)nc1C [CXC-195]
result: -77.3

query: Field request: efficacy | item: CC(C)(C)Cn1c(N)nc2ccc(-c3[nH]c(C(C)(C)C)nc3-c3ccc(F)cc3)nc21
result: -83.7

query: Name the recorded efficacy for CC(C)NC(=O)[C@H]1CC[C@@H](n2c(NC(=O)c3ccc(F)cc3)nc3ccc(CN4CCC(C(C)(C)O)CC4)cc32)CC1 [Belizatinib] .
result: -92.8

query: Tell me the measured efficacy of NC(=O)c1c(OCc2c(F)cc(Br)cc2F)nsc1NC(=O)NCCCCN1CCCC1 [OSI-632] , please.
result: -100

query: Which efficacy value is on record for CCC[C@H](N[C@@H](C)C(=O)N1[C@H](C(=O)O)C[C@@H]2CCCC[C@@H]21)C(=O)OCC [Perindopril] ?
result: 9

###

Entries and their measured AC50 cell viability follow.
- System: HCT116
- Procedure Summary: AC50 cell viability (CellTiter-Glo); higher = less potent
- Measurement Setup: 48 h
Report field: quantity (unit follows the number).

Compound: CC[C@@]1(O)C(=O)OCc2c1cc1n(c2=O)Cc2cc3c(CN(C)C)c(O)ccc3nc2-1.Cl [Topotecan hydrochloride]
AC50 cell viability: 0.59 µM

query: # input compound: Cc1ccc([S+](=O)([O-])Cc2nc(-c3ccc(C(=O)NCc4cccnc4)cc3)oc2C)cc1 ; wanted: its AC50 cell viability
result: 0.0372 µM

query: Item NC1=C(Cl)C(=CC=N1)OC2=C(F)C=C(NC(=O)\C3=C\N\C=C(C3=O)\C4=CC=C(F)C=C4)C=C2 has what recorded AC50 cell viability?
result: 16.6 µM

query: Name the recorded AC50 cell viability for C/C(=N\Nc1nnc2c(n1)[nH]c1c(C)cccc12)c1ccccn1 [VLX-600] .
result: 0.742 µM

query: What AC50 cell viability value was documented for this compound, Cc1[nH]c(/C=C2\C(=O)Nc3ccccc32)c(C)c1CCC(=O)O [Orantinib] ?
result: 23.5 µM

query: Using the record for Nc1nc(N)c2nc(-c3cccc(Cl)c3)c(N)nc2n1 [Epiblastin A] , report its AC50 cell viability.
result: 1.66 µM

###

- Tested on: HCT116
- Procedure Summary: efficacy (fitted maximal change in viability relative to DMSO control); higher = less cytotoxic (negative = loss of viability)
- Measurement Setup: 48 h
Assay Metric: efficacy (%)
Answer format: numeric, % implied, no suffix.

// below: answered molecules
Molecule: C=CC(=O)N1CC/C(=C\c2ccc(F)c([N+](=O)[O-])c2)C(=O)/C(=C/c2ccc(F)c([N+](=O)[O-])c2)C1
Reading Unit: %
efficacy: -81.4
//
Molecule: Cc1noc(-c2ccc(-c3ccc(C4(C(=O)O)CC4)cc3)cc2)c1NC(=O)O[C@H](C)c1ccccc1
Reading Unit: %
efficacy: -40.6
//
Molecule: Cc1ccc(NC(=O)[C@H]2CCCN(C(=O)c3c(C)cccc3F)[C@H]2c2ccc(NC3CCCC3)cc2)cc1C(F)(F)F
Reading Unit: %
efficacy: -27.6
//
Molecule: C=CC(=O)N1CCC[C@H](n2c(=O)n(-c3ccc(Oc4ccccc4)cc3)c3c(N)ncnc32)C1
Reading Unit: %
efficacy: -67.4
//
Molecule: CN(C)CCCOc1ccc(-c2ccc3ncc4c(c3c2)n(C2CCOCC2)c(=O)n4C)cn1
Reading Unit: %
efficacy: -86

Okay, now this molecule:
query: Entry under review: Cc1nc(NC(=O)N2CCCC2C(N)=O)sc1-c1ccnc(C(C)(C)C(F)(F)F)c1 (stereo not given) . Reported efficacy?
result: -87.4

Origin of the recorded values: the supplement of paper PMC10290057
